Every entry's value here was drawn from paper PMC8868346.

- System: AREc32
- Test Settings: MTT reduction
Hi there, I'd appreciate the recorded LD50 (µM) AREc32 for every entry that follows.

Requested field: LD50 (µM) AREc32. Item: "C#CC(=O)NCCc1c[nH]c2ccc(OC(=O)C=Cc3ccccc3)cc12"
< 1 µM

Could you do the same for "C#CCN(CC#C)CCc1c[nH]c2ccc(OC(=O)C=Cc3ccccc3)cc12" , please?
> 30 µM

Item: "C#CCNCCc1c[nH]c2ccc(OC)cc12"
> 30 µM

Please give the result for "C#CCNCCc1c[nH]c2ccc(OC(=O)/C=C/c3ccc(C)cc3)cc12" too.
11.1 ± 2.0 µM

Request: C#CCN[C@@H]1CCc2ccccc21 [Rasagiline, reference compound]
> 30 µM

Follow-up item: "C#CCN(CC#C)CCc1c[nH]c2ccc(OC)cc12"
> 30 µM

Try this molecule next: "C#CC(=O)NCCc1c[nH]c2ccc(OC(=O)/C=C/c3ccc(C)cc3)cc12"
< 1 µM

Do the same for "C#CCN(CC#C)CCc1c[nH]c2ccc(OC(=O)/C=C/c3ccc(C)cc3)cc12" please
> 30 µM

Also "C#CCNCCc1c[nH]c2ccc(OC(=O)C=Cc3ccccc3)cc12" , if possible.
7.83 ± 1.2 µM

---

I'd be grateful if you could share measured LD50 (µM) SH-SY5Y for these entries.
- System: SH-SY5Y
- Test Settings: MTT reduction
Give a bare numeral; the unit µM is implied.

Entry "C#CCNCCc1c[nH]c2ccc(OC(=O)C=Cc3ccccc3)cc12" : reported LD50 (µM) SH-SY5Y = ?
16.4

Now try "C#CCNCCc1c[nH]c2ccc(OC(=O)/C=C/c3ccc(C)cc3)cc12" .
11.6

What do we get for "C#CC(=O)NCCc1c[nH]c2ccc(OC)cc12" ?
4.87

Also check "C#CCN(CC#C)CCc1c[nH]c2ccc(OC(=O)C=Cc3ccccc3)cc12"
66.5

Also, "C#CC(=O)NCCc1c[nH]c2ccc(OC(=O)C=Cc3ccccc3)cc12" please.
9.06

What do you get for "C#CCN(CC#C)CCc1c[nH]c2ccc(OC(=O)/C=C/c3ccc(C)cc3)cc12" ?
48.3

---

- Assay Target: hrMAO-B (Homo sapiens)
- Construct: purchased Sigma–Aldrich
- Sequence (P27338 whole entry): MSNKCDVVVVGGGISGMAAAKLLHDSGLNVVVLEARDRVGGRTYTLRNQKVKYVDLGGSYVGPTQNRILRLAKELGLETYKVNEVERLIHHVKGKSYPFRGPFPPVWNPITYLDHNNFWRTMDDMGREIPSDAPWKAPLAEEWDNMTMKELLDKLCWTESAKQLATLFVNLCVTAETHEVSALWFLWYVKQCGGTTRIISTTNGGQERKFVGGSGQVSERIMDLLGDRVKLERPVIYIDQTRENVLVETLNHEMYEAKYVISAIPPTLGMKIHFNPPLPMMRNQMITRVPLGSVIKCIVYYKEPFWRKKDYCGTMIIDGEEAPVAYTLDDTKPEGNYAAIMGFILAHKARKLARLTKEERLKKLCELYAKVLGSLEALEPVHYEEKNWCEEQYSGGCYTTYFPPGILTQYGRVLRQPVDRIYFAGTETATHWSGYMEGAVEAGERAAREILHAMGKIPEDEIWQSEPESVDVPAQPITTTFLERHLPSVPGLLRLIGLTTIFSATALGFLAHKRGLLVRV
- Procedure Summary: Inhibition of monoamine oxidase B (Amplex UltraRed, tyramine)
- Format: biochemical
- Test Settings: 30 min pre-incubation, 37 °C; read-out: IC50 MAO-B
Could you please report measured IC50 for the items listed next?
Quick note: give the figure in µM, leave out the unit.

Need IC50 of "C#CCN(CC#C)CCc1c[nH]c2ccc(OC(=O)/C=C/c3ccc(C)cc3)cc12" , thanks.
28.1

Further, for "C#CCN(CC#C)CCc1c[nH]c2ccc(OC(=O)C=Cc3ccccc3)cc12" ?
17

How about this molecule: "C#CCNCCc1c[nH]c2ccc(OC(=O)/C=C/c3ccc(C)cc3)cc12"
3.03

Repeat for the following molecule: "C#CC(=O)NCCc1c[nH]c2ccc(OC(=O)C=Cc3ccccc3)cc12"
50

Likewise for "C#CC(=O)NCCc1c[nH]c2ccc(OC(=O)/C=C/c3ccc(C)cc3)cc12" ?
13.9

---

- System: blood-brain barrier (passive diffusion)
- Procedure Summary: Blood–brain barrier permeation assay (PAMPA)
- Test Settings: PAMPA, pH 7.4
Provide the reported Papp at 4 h, 100 µM of each item.
Respond numerically; units are ×10⁻⁶ cm/s and should not be typed.

Requested field: Papp at 4 h, 100 µM. Item: "C#CCN(CC#C)CCc1c[nH]c2ccc(OC(=O)/C=C/c3ccc(C)cc3)cc12"
4.46

Same for "C#CC(=O)NCCc1c[nH]c2ccc(OC)cc12"
6.64

Same read-out for "C#CC(=O)NCCc1c[nH]c2ccc(OC(=O)/C=C/c3ccc(C)cc3)cc12" ?
2.04

Subsequent entry: "C#CCN(CC#C)CCc1c[nH]c2ccc(OC(=O)C=Cc3ccccc3)cc12"
4.15

Try C#CCN[C@@H]1CCc2ccccc21 [Rasagiline, reference compound] next.
23.5

Please give the result for "C#CCNCCc1c[nH]c2ccc(OC(=O)/C=C/c3ccc(C)cc3)cc12" too.
1.84

Now try "C#CC(=O)NCCc1c[nH]c2ccc(OC(=O)C=Cc3ccccc3)cc12" .
3.12

---

- System: Mixed primary glial cultures
- Procedure Summary: Cytotoxicity in mixed primary glial cultures (MTT)
- Test Settings: MTT reduction
Recorded Metric: LD50 (µM) Mixed primary glial cultures
The figure you give is taken to be in µM; do not add the unit.

# input compound: C#CCNCCc1c[nH]c2ccc(OC(=O)C=Cc3ccccc3)cc12 [Compound 11] ; wanted: its LD50 (µM) Mixed primary glial cultures
17.8

Next record, please: C#CC(=O)NCCc1c[nH]c2ccc(OC(=O)/C=C/c3ccc(C)cc3)cc12 [Compound 18]
1.21

// query: C#CCNCCc1c[nH]c2ccc(OC(=O)/C=C/c3ccc(C)cc3)cc12 [Compound 12]
7.42

Same question, C#CC(=O)NCCc1c[nH]c2ccc(OC)cc12 [Compound 16] this time
8.81

---

So I've got a bunch of molecules here, and I need their pIC50 values.
- Assay Target: hrMAO-A (Homo sapiens)
- Construct: purchased Sigma–Aldrich
- Sequence (P21397 whole entry): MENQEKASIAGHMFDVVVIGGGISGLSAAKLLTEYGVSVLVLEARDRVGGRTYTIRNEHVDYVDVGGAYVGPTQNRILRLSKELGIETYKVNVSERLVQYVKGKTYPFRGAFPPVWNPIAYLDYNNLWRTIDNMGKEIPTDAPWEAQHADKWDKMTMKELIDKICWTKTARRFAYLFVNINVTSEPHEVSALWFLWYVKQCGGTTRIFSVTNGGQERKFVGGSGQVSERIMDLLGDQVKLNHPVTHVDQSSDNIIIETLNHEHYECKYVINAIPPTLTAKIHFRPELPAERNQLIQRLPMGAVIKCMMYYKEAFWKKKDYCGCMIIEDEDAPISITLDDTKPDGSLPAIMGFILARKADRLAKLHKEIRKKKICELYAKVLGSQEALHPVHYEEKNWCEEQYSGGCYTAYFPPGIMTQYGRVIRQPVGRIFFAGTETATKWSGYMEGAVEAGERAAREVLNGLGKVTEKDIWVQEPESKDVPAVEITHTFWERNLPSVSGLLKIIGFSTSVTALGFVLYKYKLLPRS
- Procedure Summary: Inhibition of monoamine oxidase A (Amplex UltraRed, tyramine)
- Assay type: biochemical
- Test Settings: 30 min pre-incubation, 37 °C; read-out: IC50 MAO-A
pIC50: −log10 of the molar value.

Could you tell me which pIC50 is on file for "C#CC(=O)NCCc1c[nH]c2ccc(OC)cc12" ?
< 4.00

Further, for "C#CC(=O)NCCc1c[nH]c2ccc(OC(=O)C=Cc3ccccc3)cc12" ?
< 4.00

Now consider "C#CCN(CC#C)CCc1c[nH]c2ccc(OC(=O)/C=C/c3ccc(C)cc3)cc12" .
< 4.00

---

Assign LD50 (µM) Mixed primary glial cultures to each entry below.
- Test system: Mixed primary glial cultures
- Procedure Summary: Cytotoxicity in mixed primary glial cultures (MTT)
- Test Settings: MTT reduction

Entry C#CCN(CC#C)CCc1c[nH]c2ccc(OC(=O)/C=C/c3ccc(C)cc3)cc12 [Compound 15] : reported LD50 (µM) Mixed primary glial cultures = ?
> 30 µM

Field entry: C#CCN(CC#C)CCc1c[nH]c2ccc(OC)cc12 [Compound 13]
> 30 µM

Repeat with C#CCN(CC#C)CCc1c[nH]c2ccc(OC(=O)C=Cc3ccccc3)cc12 [Compound 14]
> 30 µM

Please give the result for C#CCNCCc1c[nH]c2ccc(OC)cc12 [Compound 10] too.
> 30 µM
